Data provenance is PubChem BioAssay AID485297.

- experiment-summary: qHTS Assay for Rab9 Promoter Activators; note: nearly all actives have a fitted effect of over 60% in size
- condition-notes: Huh7 Rab9 promoter-luciferase reporter, luminescence, 24 h; series mostly up to 9.22 µM
Hit rate of the full screen: of about 320,000 compounds, about 9,100 (2.8%) were called active. About 3% were inconclusive and are not listed. Calls come from the whole dose curve; as a rule, active = well fitted activation curve with a large enough effect; inconclusive = small, poorly fitted or top-dose-only effect; inactive = no such curve, though single readings can be large or run the other way. Only a selection was taken, and actives are over-represented in it overall.
Hi there, use one of these labels in your reply, thanks! active, inactive

In: For O=C(O)c1cccc(S(=O)(=O)N2CC=C(c3ccccc3)CC2)c1 , what call appears in the results of this test?
Out: inactive

In: For Cc1ccc(Nc2nnc(SC(C)C(=O)NC3CC3)s2)cc1 (stereo unspecified) , what call appears in the results of this test?
Out: inactive

In: For O=C(/C=C/c1ccc2c(c1)OCO2)NCc1cn2cc(Cl)ccc2n1 , what call appears in the results of this test?
Out: inactive

In: For COc1ccc(C)cc1NC(=O)CN1c2cccc3cccc(c23)S1(=O)=O , what call appears in the results of this test?
Out: inactive

In: For CC(=O)Nc1ccc(S(=O)(=O)N2CCN(S(=O)(=O)c3cccs3)CC2)cc1 , what call appears in the results of this test?
Out: inactive

In: For Clc1ccc2nc(CSc3ccccc3)cn2c1 , what call appears in the results of this test?
Out: active

In: For O=c1oc2ccc(C#CC3(O)CCCCC3)cc2cc1-n1cc(-c2ccsc2)nn1 , what call appears in the results of this test?
Out: inactive

In: For N#Cc1c(NC(=O)CCCl)sc2c1CCCCC2 , what call appears in the results of this test?
Out: inactive

In: For CCOc1ccc(NS(=O)(=O)c2ccc(Cl)c(C(=O)N(C)Cc3cccnc3)c2)cc1 , what call appears in the results of this test?
Out: inactive

In: For CC1CCCN(C(=O)CN2C(=O)c3ccccc3S2(=O)=O)C1 (stereo unspecified) , what call appears in the results of this test?
Out: active

In: For O=C(CN1C(=O)c2ccccc2S1(=O)=O)N1CCc2ccccc21 , what call appears in the results of this test?
Out: inactive

---

- experiment-summary: qHTS Assay for Rab9 Promoter Activators; note: nearly all actives have a fitted effect of over 60% in size
- condition-notes: Huh7 Rab9 promoter-luciferase reporter, luminescence, 24 h; series mostly up to 9.22 µM
In all, about 320,000 compounds went through this assay and about 9,100 (2.8%) were called active. Inconclusive results (about 3%) are left out. Calls follow the shape of the dose curve; as a rule, active = well fitted activation curve with a large enough effect; inconclusive = small, poorly fitted or top-dose-only effect; inactive = no such curve, though single readings can be large or run the other way. The full list was thinned out, with actives kept by preference.
Hi there, use one of these labels in your reply, thanks! y (active), n (inactive)

In: For CCOC(=O)c1c(NC(=S)NC(=O)/C=C/c2cccs2)sc(C)c1C , what call appears in the results of this test?
Out: n

In: For CC(=O)c1ccc(NC(=O)c2ccc3c(Cl)c4c(nc3c2)CCCC4)cc1 , what call appears in the results of this test?
Out: n

In: For CC(C)CCNC(=O)c1ccc2c(Cl)c3c(nc2c1)CCC3 , what call appears in the results of this test?
Out: y

In: For COc1ccc(N2CCN(C(=O)c3ccc4c(Cl)c5c(nc4c3)CCCC5)CC2)cc1 , what call appears in the results of this test?
Out: n

In: For CCOC(=O)c1sc(=NC(=O)c2ccc(Br)cc2)n(C)c1C , what call appears in the results of this test?
Out: n

In: For CC(=O)NC1C(Oc2ccc(C)cc2)OC2COC(c3ccco3)OC2C1O (stereo unspecified) , what call appears in the results of this test?
Out: n
